Hi there, I'd appreciate the recorded inhibition of growth at 10 µM for every entry that follows.
tested on: HCT-116; assay: Growth inhibition of human HCT116 cells assessed as dead cells at 10 uM after 48 hrs by sulforhodamine-B assay relative to control; type: functional; conditions: HCT-116, 48 h, read-out: GI
Lab note: write values as number then unit, every time.

Name the reported inhibition of growth at 10 µM value associated with the compound C[C@H]1[C@H](C)CC[C@]2(C(=O)O)CC[C@]3(C)C(=CC[C@@H]4[C@@]5(C)CC[C@H](O)C(C)(C)[C@@H]5CC[C@]43C)[C@H]12 55%

What do we get for C#CCOC(=O)[C@]12CC[C@@H](C)[C@H](C)[C@H]1C1=CC[C@@H]3[C@@]4(C)CCC(=O)C(C)(C)[C@@H]4CC[C@@]3(C)[C@]1(C)CC2 ? 74%

Subsequent entry: C[C@H]1[C@H](C)CC[C@]2(C(=O)OCc3cn(-c4ccccc4I)nn3)CC[C@]3(C)C(=CC[C@@H]4[C@@]5(C)CCC(=O)C(C)(C)[C@@H]5CC[C@]43C)[C@H]12 44%

Another compound to look at: COc1ccccc1-n1cc(COC(=O)[C@]23CC[C@@H](C)[C@H](C)[C@H]2C2=CC[C@@H]4[C@@]5(C)CCC(=O)C(C)(C)[C@@H]5CC[C@@]4(C)[C@]2(C)CC3)nn1 77%

Okay, and C[C@H]1[C@H](C)CC[C@]2(C(=O)OCc3cn(-c4ccc(F)cc4F)nn3)CC[C@]3(C)C(=CC[C@@H]4[C@@]5(C)CCC(=O)C(C)(C)[C@@H]5CC[C@]43C)[C@H]12 ? 69%

Another compound to look at: C[C@H]1[C@H](C)CC[C@]2(C(=O)OCc3cn(-c4ccc(CC#N)cc4)nn3)CC[C@]3(C)C(=CC[C@@H]4[C@@]5(C)CCC(=O)C(C)(C)[C@@H]5CC[C@]43C)[C@H]12 44%

What do you have for C[C@H]1[C@H](C)CC[C@]2(C(=O)OCc3cn(-c4ccccc4Br)nn3)CC[C@]3(C)C(=CC[C@@H]4[C@@]5(C)CCC(=O)C(C)(C)[C@@H]5CC[C@]43C)[C@H]12 ? 41%

Proceed to C[C@H]1[C@H](C)CC[C@]2(C(=O)OCc3cn(-c4ccccc4Cl)nn3)CC[C@]3(C)C(=CC[C@@H]4[C@@]5(C)CCC(=O)C(C)(C)[C@@H]5CC[C@]43C)[C@H]12 54%
